system tested: T1, 4H967-bN
T1 chain: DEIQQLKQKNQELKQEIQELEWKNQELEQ
experimental details: two-hybrid library CCNG1;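 note: natural log of median RNA to DNA barcode read ratio; higher means stronger binding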
measurement label: interaction score

binder | interaction score
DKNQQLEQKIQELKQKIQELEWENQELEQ [4H3427-bN] | -1.07
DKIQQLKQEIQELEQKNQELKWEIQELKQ [4H2618-bN] | -1.39
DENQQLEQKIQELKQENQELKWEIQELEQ [4H1369-bN] | -0.997

(A) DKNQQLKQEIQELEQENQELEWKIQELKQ [4H3606-bN]
(B) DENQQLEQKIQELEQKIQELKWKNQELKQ [4H1328-bN]
(C) DEIQQLKQKIQELKQKNQELEWENQELEQ [4H883-bN]
(D) DEIQQLKQENQELKQEIQELKWKIQELEQ [4H717-bN]
Input: List items by interaction score in falling order. Would you mind listing the labels in the order requested?
Output: B, D, C, A
